System: WEEV replicon
assay.overview: microbe, parasite or virus in culture
Type: cell-based, Western equine encephalitis virus
condition.set: Western equine encephalitis virus; read-out: Activity (% control LUC) 50 μM
observed.property: activity at 50 µM (%)
Lab book: enter the figure in %, no units written.

Example results:
[
  {
    "sample.smiles": "O=C(c1cc2ccccc2n1Cc1ccc(Cl)cc1)N1CCC(C(=O)N2CCOCC2)CC1",
    "measured.target": "WEEV replicon",
    "reported": 8.3
  },
  {
    "sample.smiles": "O=C(NCc1ccccc1)C1CCN(C(=O)c2cc3ccccc3n2Cc2ccc(F)cc2)CC1",
    "measured.target": "WEEV replicon",
    "reported": 67
  },
  {
    "sample.smiles": "O=C(c1cc2ccccc2n1Cc1ccc(Cl)cc1)N1CCC(C(=O)N2CCC[C@H]2CO)CC1",
    "measured.target": "WEEV replicon",
    "reported": 21.1
  }
]

// returns activity at 50 µM for `O=C(c1cc2ccccc2n1Cc1ccc(Cl)cc1)N1CCC(C(=O)N2CCCCC2)CC1` with WEEV replicon; value = 3.4

* * *

Tested on: WEEV replicon
assay.overview: microbe, parasite or virus in culture
Type: cell-based, Western equine encephalitis virus
condition.set: Western equine encephalitis virus; read-out: Activity (% control LUC) 50 μM
Binary call on activity at 50 µM with cut-off 40%: strictly below means true, and equality or higher means false.

Consider the worked cases shown below.
[
  {
    "compound": "O=C(c1cc2ccccc2n1Cc1ccc(Cl)cc1)N1CCC(C(=O)N2CCCC2)CC1 [CCG 102514]",
    "class": "true"
  },
  {
    "compound": "CN1CCN(C(=O)C2CCN(C(=O)c3cc4ccccc4n3Cc3ccc(Cl)cc3)CC2)CC1 [CCG 204023]",
    "class": "true"
  },
  {
    "compound": "Cc1ccc(CCNC(=O)C2CCN(C(=O)c3cc4ccccc4n3Cc3ccc(Cl)cc3)CC2)cc1 [CCG 102518]",
    "class": "true"
  },
  {
    "compound": "CN(C)C(=O)C1CCN(C(=O)c2cc3ccccc3n2Cc2ccc(Cl)cc2)CC1 [CCG 204022]",
    "class": "true"
  },
  {
    "compound": "O=C(c1cc2ccccc2n1Cc1ccc(F)cc1)N1CCC(C(=O)N2CCCCC2)CC1 [CCG 203945]",
    "class": "true"
  },
  {
    "compound": "Cc1cccc(CNC(=O)C2CCN(C(=O)c3cc4ccccc4n3Cc3ccc(Cl)cc3)CC2)c1 [CCG 204042]",
    "class": "false"
  },
  {
    "compound": "CN(Cc1ccccc1)C(=O)C1CCN(C(=O)c2cc3ccccc3n2Cc2ccc(Cl)cc2)CC1 [CCG 203930]",
    "class": "true"
  },
  {
    "compound": "O=C(NCc1ccccc1)C1CCN(C(=O)c2cc3ccccc3n2Cc2ccc(Cl)cc2)CC1 [CCG 102516]",
    "class": "false"
  },
  {
    "compound": "O=C(NCc1ccncc1)C1CCN(C(=O)c2cc3ccccc3n2Cc2ccc(Cl)cc2)CC1 [CCG 203929]",
    "class": "true"
  },
  {
    "compound": "O=C(NCc1ccccc1)C1CCN(C(=O)c2cccn2Cc2ccc(Cl)cc2)CC1 [CCG 204054]",
    "class": "false"
  }
]

Q: For COC(=O)c1cccc(NC(=O)C2CCN(C(=O)c3cc4ccccc4n3Cc3ccc(Cl)cc3)CC2)c1 [CCG 204057] , is the recorded activity at 50 µM below the cut-off of 40%?
A: false

Q: Problem: For the compound O=C(c1cc2ccccc2n1Cc1ccc(F)cc1)N1CCC(C(O)c2ccccc2)CC1 (stereo not drawn) [CCG 204056] , is activity at 50 µM under 40%?
A: true

Q: API: query returns whether the compound falls strictly under 40% in activity at 50 µM. Query: O=C(NCc1cccc(Cl)c1)C1CCN(C(=O)c2cc3ccccc3n2Cc2ccc(Cl)cc2)CC1 [CCG 204043]
A: false

Q: Report whether reported activity at 50 µM is lower than 40% (strictly) for O=C(c1cc2ccccc2n1Cc1ccc(F)cc1)N1CCN(Cc2ccccc2)CC1 [CCG 203942]
A: false
